- System: KO-52 cells
- assayExplanation: Proliferation assay, spheroid-like growth, KO-52 (MLL wildtype control cell line)
- Type: cell-based, human
- particulars: Homo sapiens, 192 h, KO-52 control cells, 8 days, confluence as measure of spheroid size; read-out: spheroid assay_OneTime KO-52 IC50
pIC50: −log10 of the molar value.
Response key: TRUE means pIC50 >= 5; FALSE means pIC50 < 5.

# compound, assignedClass
records = [
    ("CC(C)[C@@H](C1CC(C)(O)C1)N1CC2(CCN(c3ncnnc3Oc3ccc(F)cc3-c3cncnc3C3CC3)C2)C1 (single isomer, unassigned)", "FALSE"),
    ("CC(C)C([C@H]1C[C@@H](NC(=O)CCN(C)C)C1)N1CC2(CCN(c3ncnnc3Oc3ccc(F)cc3-c3cncnc3C3CC3)C2)C1 (stereo partly shown)", "FALSE"),
    ("CC(C)C([C@H]1C[C@@H](N2CC(O)C2)C1)N1CC2(CCN(c3ncnnc3Oc3ccc(F)cc3-c3cncnc3C3CC3)C2)C1 (stereo partly shown)", "TRUE"),
    ("COC1CN([C@H]2C[C@@H]([C@@H](C(C)C)N3CC4(CCN(c5ncnnc5Oc5ccc(F)cc5-c5cncnc5C5CC5)C4)C3)C2)CC1OC (single isomer, unassigned)", "TRUE"),
    ("CC(C)[C@H]([C@H]1C[C@@H](N2C[C@@H]3[C@H](C2)[C@H]3C(=O)N(C)C)C1)N1CC2(CCN(c3ncnnc3Oc3ccc(F)cc3-c3cncnc3C3CC3)C2)C1 (single isomer, unassigned)", "TRUE"),
    ("CC(C)[C@H]([C@H]1C[C@@H](NC(=O)C2(F)CC2)C1)N1CC2(CCN(c3ncnnc3Oc3ccc(F)cc3-c3nnccc3C3CC3)C2)C1 (single isomer, unassigned)", "TRUE"),
    ("CC(C)[C@H]([C@H]1C[C@@H](NC2CC2)C1)N1CC2(CCN(c3ncnnc3Oc3ccc(F)cc3-c3ncccc3C3CC3)C2)C1 (single isomer, unassigned)", "TRUE"),
    ("CC(C)[C@H]([C@H]1C[C@H](N2CCC(O)C(F)C2)C1)N1CC2(CCN(c3ncnnc3Oc3ccc(F)cc3-c3cncnc3C3CC3)C2)C1 (single isomer, unassigned)", "TRUE"),
    ("CC(=O)N1CCN([C@H]2C[C@@H]([C@H](C(C)C)N3CC4(CCN(c5ncnnc5Oc5ccc(F)cc5-c5cccnc5C5CC5)C4)C3)C2)CC1 (single isomer, unassigned)", "TRUE"),
    ("COC1(C(=O)N[C@H]2C[C@@H]([C@@H](C(C)C)N3CC4(CCN(c5ncnnc5Oc5ccc(F)cc5-c5cncnc5C5CC5)C4)C3)C2)CC1 (single isomer, unassigned)", "TRUE"),
]

----------
- assayedSystem: menin/MLL (terbium chelate-labeled menin, FITC-MBM1 peptide) (Homo sapiens, UniProt O00255, T541A)
- Construct: Menin (a.a 1-610-6xhis tag)
- Sequence (O00255 with tags, fused parts or gaps T541A): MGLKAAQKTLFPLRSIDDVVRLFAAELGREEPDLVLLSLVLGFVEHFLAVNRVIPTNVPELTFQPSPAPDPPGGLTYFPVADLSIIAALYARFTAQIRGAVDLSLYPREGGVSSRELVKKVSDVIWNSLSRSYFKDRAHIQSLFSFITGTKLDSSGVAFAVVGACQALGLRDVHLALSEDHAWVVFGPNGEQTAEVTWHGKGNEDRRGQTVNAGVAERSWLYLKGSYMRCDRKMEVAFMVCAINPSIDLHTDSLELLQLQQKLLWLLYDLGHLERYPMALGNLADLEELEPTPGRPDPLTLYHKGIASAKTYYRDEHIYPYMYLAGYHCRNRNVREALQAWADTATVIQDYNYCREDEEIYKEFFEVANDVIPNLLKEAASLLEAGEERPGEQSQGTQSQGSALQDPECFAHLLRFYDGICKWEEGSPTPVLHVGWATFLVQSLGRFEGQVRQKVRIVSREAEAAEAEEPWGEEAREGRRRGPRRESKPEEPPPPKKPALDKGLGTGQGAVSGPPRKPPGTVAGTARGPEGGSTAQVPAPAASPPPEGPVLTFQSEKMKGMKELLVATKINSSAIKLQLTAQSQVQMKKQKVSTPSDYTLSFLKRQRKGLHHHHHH
- assayExplanation: Menin/MLL homogenous time-resolved fluorescence (HTRF) assay
- particulars: 30 min incubation
measureName: IC50

# compound, recordedMeasurement
data = [
    ("CC(C)[C@@H]([C@H]1C[C@H](N2CC3(CCO3)C2)C1)N1CC2(CCN(c3ncnnc3Oc3ccc(F)cc3-c3cnncc3C3CC3)C2)C1 (single isomer, unassigned) [Compound 103]", "0.1 nM"),
    ("CCOC(=O)c1nnc(N[C@H]2C[C@@H](C(C(C)C)N3CC4(CCN(c5ncnnc5Oc5ccc(F)cc5-c5cncnc5C5CC5)C4)C3)C2)o1 (single isomer, unassigned) [Compound 481]", "0.14 nM"),
    ("Fc1ccc(Oc2nncnc2N2CCC3(C2)CN([C@@H](C2CCN(CC4COC4)CC2)C24CC(C2)C4)C3)c(-c2cncnc2C2CC2)c1 (single isomer, unassigned) [Compound 336]", "0.6 nM"),
    ("CC(C)[C@H]([C@H]1C[C@@H](Nc2ncnc3[nH]ncc23)C1)N1CC2(CCN(c3ncnnc3Oc3ccc(F)cc3-c3cncnc3C3CC3)C2)C1 (single isomer, unassigned) [Compound 422]", "~0.27 nM"),
    ("CC(C)[C@H]([C@H]1C[C@@H](NC(=O)C2CC2)C1)N1CC2(CCN(c3ncnnc3Oc3ccc(F)cc3-c3n[nH]c(=O)cc3C3CC3)C2)C1 (single isomer, unassigned) [Compound 309]", "0.2 nM"),
]
